System: IGROV1 ovarian
ASSAY_PROTOCOL: NCI-60 one-dose screen, 48 h (100 = growth as untreated, 0 = no growth, -100 = all killed)
CONDITION_DESCRIPTION: 10 µM
This is part of a sample that, as a whole, favours compounds with a hit. Of some 83,000 tested, about 20% had one in any assay.
Items are presented alongside their recorded growth.
METRIC: growth (%)

COMPOUND	REPORTED_VALUE
Cc1ccc(C(=O)NC2c3ccccc3Oc3ccccc32)cc1	50.8
CC(CC(=O)c1ccccc1)c1ccccc1 (centres undefined)	101
C1CNC(C2=NCCN2)=N1	107
CC1(O)OC(COc2ccc(Cl)cc2)COC1O (centres undefined)	113
CC1(c2ccccc2)NC(=O)NC1=O (centres undefined)	105
COc1ccc(C(=O)C(Br)C(Br)C(=O)O)cc1 (centres undefined)	110
O=S(=O)(O)c1cc(O)c2c(N=Cc3ccccc3O)c(S(=O)(=O)O)ccc2c1	88.4
Nc1ccccc1C(=O)Nc1ccc(Cl)cc1Cl	35.9
O/N=C/c1ccc(O)cc1O	117
CCCNc1ccc(C2=NCCCN2)cc1	86
Cc1cccc([N+](=O)[O-])c1Cl	112
Cc1ccc(S(=O)(=O)O)c(C)c1	103
CCOC(=O)CNN	112
Cc1cc(C)c(CC(=O)O)c(C)c1	108

---

Test system: NCI-H460 lung
ASSAY_PROTOCOL: NCI-60 one-dose screen, 48 h (100 = growth as untreated, 0 = no growth, -100 = all killed)
CONDITION_DESCRIPTION: 10 µM
The panel holds about 83,000 compounds, 20% with a hit somewhere; the sample as a whole holds those more often.
Items are presented alongside their recorded growth.
METRIC: growth (%)

COMPOUND	METRIC	REPORTED_VALUE
CC(C)COC(=O)COC(=O)OCCOCCOC(=O)OCC(=O)OCC(C)C	growth	114
Brc1cnc2ccccc2c1	growth	109
O=[N+]([O-])c1ccccc1S(=O)c1ccccc1[N+](=O)[O-]	growth	105
CCOC(=O)c1coc(C(=O)OCC)c1C(=O)OCC	growth	111
O=C(O)c1cccc([N+](=O)[O-])c1	growth	106
CCOC(=O)c1[nH]c(C)c(C(=O)O)c1C	growth	110
O=[N+]([O-])c1ccc(Sc2ccncn2)c([N+](=O)[O-])c1	growth	99.3
C#CC(C(C)C)N(CCO)CCCC (configuration not stated)	growth	101
O=c1cc(-c2ccccc2)oc2c1ccc1ccccc12	growth	97.1
CCCCCCCCCCCCCCCCC1CC(=O)OC1=O (configuration not stated)	growth	118
CCc1nn(Cc2ccccc2)c2nc(C)c(CCc3ccccc3)c(Cl)c12	growth	90.8
Nc1nc2c(c(-c3nc(N)nc4c3CCc3ccccc3-4)n1)CCc1ccccc1-2	growth	117

---

System: RXF 393 renal
ASSAY_PROTOCOL: NCI-60 one-dose screen, 48 h
CONDITION_DESCRIPTION: 10 µM
Description: Cells are grown in 96 well plates and exposed to the test compound for 48 hours. Compounds are tested at a single concentration, which is 10^-5 M for most compounds. The reported endpoint is percent growth (GI% or GIPRCNT), where numbers from 0 - 100% represent growth inhibition, and numbers from -100% - 0 represent cell death. For example, a value of 40 represents 60% growth inhibition. A value of 0 means no net growth occurred over the course of the experiment. […]
Compounds without any hit were thinned out: in the full panel of roughly 83,000, 20% have a hit. Active and inactive are the calls of the source. How the source made its calls: active means growth percent below 10; inactive means the rest.
Labels: y = active, n = inactive

MOLECULE	CATEGORY
C[N+](C)=c1ccc2nc3c(cc(Nc4ccccc4)c4ccccc43)oc-2c1	n
CN(C)c1ccc(S(=O)(=O)O)cc1	n
c1ccc2c(c1)Sc1ccccc1S2	n
NC(=S)N/N=C/c1ccc(N)cc1	n
Cc1ccc(C(=O)N/N=C/c2ccc3c(c2)OCO3)cc1	n
CC(=Nc1ccccc1)C1=C(O)C(Cc2cccc(F)c2)NC1=O (stereo not given)	n
COc1ncnc2c1cnn2C	n
O=P(O)(O)OCC(O)CO (stereo not given)	n
COC(=O)C(C)Oc1ccc(OC#N)cc1 (stereo not given)	n
COc1cc(/C=C/C(=O)c2ccccc2)cc(OC)c1OC	n
Cc1ccc(C(O)C2CC2)cc1 (stereo not given)	n
Cc1cc(C(O)(c2ccc(Nc3ccccc3)cc2)c2ccc(Nc3ccc(S(=O)(=O)O)cc3)cc2)ccc1N (stereo not given)	y
Cc1ccc(O)c(C(=O)c2ccccc2)c1	n
CC(=O)c1sc2c(c1OC(=O)c1ccc(Cl)cc1Cl)c(=O)n(-c1ccccc1)c(=S)n2-c1ccccc1	y
O=C(O)COCC(=O)O	n
COc1cc2c3cc1Oc1c(OC)c(OC)cc4c1C(Cc1ccc(O)c(c1)Oc1ccc(cc1)CC3N(C)CC2)N(C)CC4 (stereo not given)	y
CCOC(=O)C(CCC(C)C)C(=O)OCC	n
Cc1ccc(C(=O)c2ccccc2)c(C)c1	n
CN(C)CCN(Cc1ccccc1)c1ccccc1	n
O=C1N(C[P+](c2ccccc2)(c2ccccc2)c2ccccc2)CCCN1C[P+](c1ccccc1)(c1ccccc1)c1ccccc1	n
CCOc1ccc(I)cc1	n
Cc1ccc(Cl)cc1NC(=O)N(C)CCO	n
N=c1c(C(=O)OCc2ccccc2)ncc(CCl)n1O	n
CCOC(=O)CNN	n
O=C1NC(=O)C2C(=O)NC(=O)C1C21CCc2ccccc21 (stereo not given)	n
CCOC(=O)C1=C(C)NC(=O)NC1c1cccs1 (stereo not given)	n
N#Cc1ccc(NC(=O)Nc2cccc(C#N)c2)cc1	n
CCOc1ccc(/C=N/N=C(N)N)cc1OCC	n
O=C1c2ccccc2C(=O)c2c1ccc(C(=O)O)c2[N+](=O)[O-]	n
CC(=O)c1ccc(C(C)(C)C)cc1	n
O=C(NCO)c1ccccc1	n
OCCN(CCO)C(=S)S	n
CNc1nc(NC)c2cn[nH]c2n1	n
CCO/C=C1\SC(=S)N(c2cccc(C)c2)C1=O	n
CCC(C)(C)C1CCC(O)CC1 (stereo not given)	n
Oc1ccc2c(c1)OCC1(O)Cc3cc(O)c(O)cc3C21 (stereo not given)	n
O=C1C[C@H](c2ccccc2)[C@H](c2ccccc2)C1	n
O=C(CC(=O)c1ccccc1O)c1ccccc1	n
O=C1c2ccccc2C(=O)N1OCc1ccccc1	n
O=C1OC(c2ccc(F)cc2)CC1CN1CCOCC1 (stereo not given)	n
Cc1cc(N)ccc1-c1ccc(N)cc1C	n
O=C(NN=C1CCCCC1)C(=O)NN=C1CCCCC1	n
Cc1cc(C)cc(NCCC#N)c1	n
O=C(/C=C/C(=O)c1ccccc1)c1ccccc1	n
OC(c1ccccn1)C(O)c1ccccn1 (stereo not given)	n
OCCN1CCOCC1	n
COc1cccc(O)c1O	n
O=S(=O)(O)CC(O)CN1CCN(CCO)CC1 (stereo not given)	n
Oc1ccccc1O	n
O=c1[nH]nc(SC2CCCCC2)c(=O)[nH]1	n
Cc1cc(=O)cc(C)n1-c1ccccc1	n
CC(C)=CC(=O)OC(=O)C=C(C)C	n
CNC(=S)NC(C)(C)C	n
CC1C(=O)c2ccccc2CC1C(=O)O (stereo not given)	n
O=[N+]([O-])c1ccc(S(=O)(=O)NN=C2CCCCC2)cc1	n
